- Tested on: Majidae
- experiment: The compound was tested for optical responses recorded from spider crab walking leg nerve bundles upon staining.
- Assay type: functional
Provide the reported Delta I/I of each item.
Answers are plain numbers.

{"compound.structure.string": "CN(C)c1cccc2c(S(=O)(=O)N[C@@H](CO)Cc3ccccc3)cccc12", "Delta I/I": 0.00015}
{"compound.structure.string": "C[C@@H](Cc1ccccc1)NS(=O)(=O)c1cccc2c(N(C)C)cccc12", "Delta I/I": "7e-05"}

Then this molecule:
Form field: reported Delta I/I of CN(C)c1cccc2c(C(=O)N[C@H](CO)Cc3ccccc3)cccc12
0.00024

----------
Provide the reported Delta I/I of each item.
- Tested on: Majidae
- experiment: The compound was tested for optical responses recorded from spider crab walking leg nerve bundles upon staining.
- Assay type: functional
One number for each entry.

In the examples that follow, each entry is paired with its recorded Delta I/I.
{"compound.structure.string": "C[C@H](Cc1ccccc1)NC(=O)c1cccc2c(N(C)C)cccc12", "experimental.system": "Majidae", "Delta I/I": 0.00035}
{"compound.structure.string": "C[C@H](Cc1ccccc1)NS(=O)(=O)c1cccc2c(N(C)C)cccc12", "experimental.system": "Majidae", "Delta I/I": "8.5e-05"}
{"compound.structure.string": "CN(C)c1cccc2c(S(=O)(=O)N[C@H](CO)Cc3ccccc3)cccc12", "experimental.system": "Majidae", "Delta I/I": 0.00018}
{"compound.structure.string": "CN(C)c1cccc2c(C(=O)N[C@@H](CO)Cc3ccccc3)cccc12", "experimental.system": "Majidae", "Delta I/I": 0.00025}

Then this compound:
Form field: reported Delta I/I of C[C@@H](Cc1ccccc1)NC(=O)c1cccc2c(N(C)C)cccc12
0.00038

Reference source: ChEMBL document CHEMBL1121404
